test system: Diabrotica balteata; assay: Diabrotica balteata test on maize; drench application; type: in vivo; conditions: soil, 192 h, mortality 8 days after treatment, mixtures about 95%/5%, read-out: % Activity (according to Abbott)
Observable: inhibition at 20 ppm (%)
Write the answer as a number in %, unit excluded.

So what inhibition at 20 ppm did CNC(=O)c1cc(C#N)cc(C)c1NC(=O)c1cc(Cn2nnc(C(F)(F)F)n2)nn1-c1ncccc1Cl get with Diabrotica balteata?
100

So what inhibition at 20 ppm did Cc1cc(Br)cc(C(=O)NCC#N)c1NC(=O)c1cc(Cn2nnc(C(F)(F)F)n2)nn1-c1ncccc1Cl get with Diabrotica balteata?
100

So what inhibition at 20 ppm did CNC(=O)c1cc(C#N)cc(C)c1NC(=O)c1cc(Cn2nnc(C(F)(F)F)n2)nn1-c1c(F)cccc1Cl get with Diabrotica balteata?
90

So what inhibition at 20 ppm did CNC(=O)c1cc(C#N)cc(C)c1NC(=O)c1cc(Cn2nnc(C(F)(F)F)n2)nn1-c1ncccc1Br get with Diabrotica balteata?
100

So what inhibition at 20 ppm did CNC(=O)c1cc(I)cc(C)c1NC(=O)c1cc(Cn2nnc(C(F)(F)F)n2)nn1-c1ncccc1Cl get with Diabrotica balteata?
100

---

Consider the following compounds; for each one, report its pest or weed control at 0.5 mg/plant.
system: Spodoptera frugiperda; experiment: Spodoptera frugiperda test on maize; drench application (Example B); assay type: in vivo; details: soil, 168 h, 0.5 mg of ai/plant, mortality 7 days after infestation, read-out: % Activity (according to Abbott)
Write the answer as a number in %, unit excluded.

So what pest or weed control at 0.5 mg/plant did CNC(=O)c1cc(F)cc(C)c1NC(=O)c1cc(Cn2nnc(C(F)(F)F)n2)nn1-c1ncccc1Cl [(I-1-61)] get with Spodoptera frugiperda?
100

So what pest or weed control at 0.5 mg/plant did CNC(=O)c1cc(I)cc(C)c1NC(=O)c1cc(Cn2nnc(C(F)(F)F)n2)nn1-c1ncccc1Cl [(I-1-69)] get with Spodoptera frugiperda?
85

So what pest or weed control at 0.5 mg/plant did CCNC(=O)c1cc(C#N)cc(C)c1NC(=O)c1cc(Cn2nnc(C(F)(F)F)n2)nn1-c1ncccc1Cl [(I-1-3)] get with Spodoptera frugiperda?
100

So what pest or weed control at 0.5 mg/plant did Cc1cc(C#N)cc(C(=O)NC(C)(C)C)c1NC(=O)c1cc(Cn2nnc(C3CC3)n2)nn1-c1ncccc1Cl [(I-1-71)] get with Spodoptera frugiperda?
85

So what pest or weed control at 0.5 mg/plant did CNC(=O)c1cc(Br)cc(C)c1NC(=O)c1cc(Cn2nnc(C(F)(F)F)n2)nn1-c1ncccc1Cl [(I-1-64)] get with Spodoptera frugiperda?
100

So what pest or weed control at 0.5 mg/plant did Cc1cc(Br)cc(C(=O)NCC#N)c1NC(=O)c1cc(Cn2nnc(C(F)(F)F)n2)nn1-c1ncccc1Cl [(I-1-68)] get with Spodoptera frugiperda?
100

So what pest or weed control at 0.5 mg/plant did CNC(=O)c1cc(C#N)cc(C)c1NC(=O)c1cc(Cn2nnc(C(F)(F)F)n2)nn1-c1ncccc1Br [(I-1-62)] get with Spodoptera frugiperda?
98

So what pest or weed control at 0.5 mg/plant did Cc1cc(C#N)cc(C(=O)NC(C)(C)C)c1NC(=O)c1cc(Cn2nnc(C(F)(F)F)n2)nn1-c1ncccc1Cl [(I-1-63)] get with Spodoptera frugiperda?
100
